Catalogue of pKi values
target: UniProt:P22059; assay: Displacement of [3H]-25-OHC from human OSBP overexpressed in HEK293T cell lysate assessed as inhibition constant by competitive binding assay
Sequence (P22059 whole entry): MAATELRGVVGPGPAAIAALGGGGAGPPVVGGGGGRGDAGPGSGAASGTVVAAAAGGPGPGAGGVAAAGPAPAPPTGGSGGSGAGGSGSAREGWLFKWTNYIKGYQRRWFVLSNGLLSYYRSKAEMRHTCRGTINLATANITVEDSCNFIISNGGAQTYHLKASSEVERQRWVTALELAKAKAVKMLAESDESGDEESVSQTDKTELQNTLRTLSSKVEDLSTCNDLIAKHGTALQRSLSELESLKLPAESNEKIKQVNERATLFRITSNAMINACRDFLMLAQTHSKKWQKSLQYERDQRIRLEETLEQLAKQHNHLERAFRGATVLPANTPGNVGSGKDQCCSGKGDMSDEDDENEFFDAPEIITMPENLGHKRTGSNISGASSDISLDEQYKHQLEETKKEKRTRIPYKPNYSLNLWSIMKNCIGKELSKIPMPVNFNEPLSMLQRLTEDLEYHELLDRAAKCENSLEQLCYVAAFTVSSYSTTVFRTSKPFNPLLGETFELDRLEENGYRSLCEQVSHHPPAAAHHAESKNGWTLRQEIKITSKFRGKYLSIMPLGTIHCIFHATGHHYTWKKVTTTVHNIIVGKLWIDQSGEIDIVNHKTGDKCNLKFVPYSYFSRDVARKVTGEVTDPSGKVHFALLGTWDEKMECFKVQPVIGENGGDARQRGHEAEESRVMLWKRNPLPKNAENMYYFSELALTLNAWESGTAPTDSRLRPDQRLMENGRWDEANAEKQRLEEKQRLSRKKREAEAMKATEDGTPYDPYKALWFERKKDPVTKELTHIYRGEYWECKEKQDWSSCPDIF
pKi: −log10 of the molar value.

1. C[C@]12CC[C@H](O)CC1=CC[C@@H]1[C@@H]2CC[C@]2(C)C([C@H](O)CO)=CC[C@@H]12 : < 4.30
2. CC(C)C[C@@](C)(O)[C@H]1CC[C@H]2[C@@H]3CC=C4C[C@@H](O)CC[C@]4(C)[C@H]3CC[C@@]21C : < 4.30
3. CCCC[C@](C)(O)[C@H]1CC[C@H]2[C@@H]3CC=C4C[C@@H](O)CC[C@]4(C)[C@H]3CC[C@@]21C : < 5.00
4. CC(C)(O)[C@H]1O[C@H]2CC[C@@]3(C)[C@@](O)(CC[C@H]4Cc5c([nH]c6ccccc56)[C@@]43C)C2=CC1=O : < 4.30
5. C[C@H](CCCC(C)(C)O)[C@H]1CC[C@H]2[C@@H]3[C@H](O)C=C4C[C@@H](O)CC[C@]4(C)[C@H]3CC[C@]12C : 7.11
6. CCCCCCCC[C@@](C)(O)[C@H]1CC[C@H]2[C@@H]3CC=C4C[C@@H](O)CC[C@]4(C)[C@H]3CC[C@@]21C : < 4.00
7. CC(C)CCN[C@@H](C)[C@H]1CC[C@H]2[C@@H]3CC=C4C[C@@H](O)CC[C@]4(C)[C@H]3CC[C@]12C : < 4.00
8. CCCCCCCC[C@](C)(O)[C@H]1CC[C@H]2[C@@H]3CC=C4C[C@@H](O)CC[C@]4(C)[C@H]3CC[C@@]21C : < 5.00

From here, focus on the item given below.
Q) Query (compound): CC[C@](C)(O)[C@H]1CC[C@H]2[C@@H]3CC=C4C[C@@H](O)CC[C@]4(C)[C@H]3CC[C@@]21C ; field requested: pKi
A) < 4.52

###

Target: Oxysterol-binding protein 2 (Homo sapiens)
Sequence (Q969R2 whole entry): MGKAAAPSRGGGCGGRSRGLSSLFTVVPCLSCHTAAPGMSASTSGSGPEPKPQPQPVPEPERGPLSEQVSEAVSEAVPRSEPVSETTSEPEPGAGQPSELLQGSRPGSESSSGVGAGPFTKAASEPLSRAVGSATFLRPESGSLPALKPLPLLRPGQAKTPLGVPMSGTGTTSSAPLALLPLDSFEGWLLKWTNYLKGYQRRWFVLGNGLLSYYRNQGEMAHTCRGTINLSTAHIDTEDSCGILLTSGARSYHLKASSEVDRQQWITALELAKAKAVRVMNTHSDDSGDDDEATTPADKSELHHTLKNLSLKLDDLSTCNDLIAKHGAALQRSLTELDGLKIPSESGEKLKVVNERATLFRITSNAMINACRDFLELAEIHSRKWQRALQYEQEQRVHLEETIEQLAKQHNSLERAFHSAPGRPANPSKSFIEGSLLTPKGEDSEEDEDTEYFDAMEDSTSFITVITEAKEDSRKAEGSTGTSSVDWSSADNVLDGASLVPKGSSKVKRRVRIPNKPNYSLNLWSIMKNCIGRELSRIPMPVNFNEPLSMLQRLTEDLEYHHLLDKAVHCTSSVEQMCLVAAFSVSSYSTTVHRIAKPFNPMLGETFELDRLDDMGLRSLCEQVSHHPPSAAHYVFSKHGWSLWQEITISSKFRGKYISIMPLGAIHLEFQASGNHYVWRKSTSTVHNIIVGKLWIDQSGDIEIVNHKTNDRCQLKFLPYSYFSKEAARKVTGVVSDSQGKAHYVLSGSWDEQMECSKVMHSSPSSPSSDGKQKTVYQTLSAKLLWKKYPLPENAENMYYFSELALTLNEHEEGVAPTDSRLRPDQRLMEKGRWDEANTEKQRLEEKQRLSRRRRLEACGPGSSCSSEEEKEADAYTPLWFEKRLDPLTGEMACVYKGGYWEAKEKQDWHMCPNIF
Assay: Displacement of [3H]-25-OHC from human ORP4 overexpressed in HEK293T cell lysate assessed as inhibition constant by competitive binding assay
Type: subcellular
// Ki lookup, one value per entry

A selection of reference data follows.
1) CCCC[C@](C)(O)[C@H]1CC[C@H]2[C@@H]3CC=C4C[C@@H](O)CC[C@]4(C)[C@H]3CC[C@@]21C : > 30 µM
2) C[C@H](CO)CCC[C@@H](C)[C@H]1CC[C@H]2[C@@H]3CC=C4C[C@@H](O)CC[C@]4(C)[C@H]3CC[C@]12C : > 0.87 µM
3) CC(C)CC[C@@H](O)[C@@H](C)[C@H]1CC[C@H]2[C@@H]3CC=C4C[C@@H](O)CC[C@]4(C)[C@H]3CC[C@]12C [22(R)-HYDROXYCHOLESTEROL] : > 50 µM
4) CCN(CC)CCO[C@H]1CC[C@@]2(C)C(=CC[C@@H]3[C@@H]2CC[C@]2(C)C(=O)CC[C@@H]32)C1 : > 50 µM
5) C[C@H](CCCC(C)(C)O)[C@H]1CC[C@H]2[C@@H]3CCC4C[C@@H](O)CC[C@]4(C)[C@H]3CC[C@]12C (stereo not given in full) : 0.051 µM
6) CC(C)C[C@](C)(O)[C@H]1CC[C@H]2[C@@H]3CC=C4C[C@@H](O)CC[C@]4(C)[C@H]3CC[C@@]21C : > 30 µM

Q) Ki lookup needed for C[C@H](O)[C@H]1CC[C@H]2[C@@H]3CC=C4C[C@@H](O)CC[C@]4(C)[C@H]3CC[C@]12C , thanks.
A) > 100 µM

Q) Give the measured Ki of CC(C)C[C@@](C)(O)[C@H]1CC[C@H]2[C@@H]3CC=C4C[C@@H](O)CC[C@]4(C)[C@H]3CC[C@@]21C .
A) > 50 µM

Q) What does the record list as Ki for CC[C@](C)(O)[C@H]1CC[C@H]2[C@@H]3CC=C4C[C@@H](O)CC[C@]4(C)[C@H]3CC[C@@]21C ?
A) > 30 µM

Q) Find the recorded Ki belonging to CCCCC[C@](C)(O)[C@H]1CC[C@H]2[C@@H]3CC=C4C[C@@H](O)CC[C@]4(C)[C@H]3CC[C@@]21C and report it.
A) 0.78 µM
